Entries and their measured pIC50 follow.
Target: recombinant human Polq polymerase domain (residues 1792-2590) (Homo sapiens, UniProt O75417)
Assay: Cy5 fluorescence assay of Polq polymerase enzymatic activity
Type: biochemical
Conditions: 5 nM Polq polymerase domain, 60 nM primer-template, 50 uM dNTPs, 37° C., 18 min, 2.5% DMSO, triplicate; read-out: Polq IC50
pIC50: −log10 of the molar value.
experimentalEndpoint: pIC50

{"columns": ["compound", "reportedResult"],
 "data": [
  ["[2H]C([2H])([2H])N(C(=O)Cc1c(-c2cn[nH]c2)cc(C(F)(F)F)cc1C(F)(F)F)c1ccc(F)cc1 [Example 23]", 7.33],
  ["CC(C)(C)OC(=O)n1ccn(-c2cc(C(F)(F)F)cc(C(F)(F)F)c2OC(=O)N(CC#N)c2ccc(F)cc2)c1=O [Example 19]", 6.53],
  ["CN(C(=O)Oc1c(-c2cn(C3CC(O)C3)nn2)cc(C(F)(F)F)cc1C(F)(F)F)c1ccc(F)cc1 (centres unmarked) [Example 17]", 8.82],
  ["N#CCN(C(=O)Oc1c(-n2cc[nH]c2=O)cc(C(F)(F)F)cc1C(F)(F)F)c1ccc(F)cc1 [Example 20]", 6.36],
  ["[2H]C([2H])([2H])N(C(=O)Cc1c(-c2cnn(C(=O)OC(C)(C)C)c2)cc(C(F)(F)F)cc1C(F)(F)F)c1ccc(F)cc1 [Example 22]", 7.61]
]}

====

Molecular target: recombinant human Polq polymerase domain (residues 1792-2590) (Homo sapiens, UniProt O75417)
Test: Cy5 fluorescence assay of Polq polymerase enzymatic activity
Type: biochemical
Conditions: Polq IC50, 5 nM Polq polymerase domain, 60 nM primer-template, 50 uM dNTPs, 37° C., 18 min, 2.5% DMSO, triplicate
Entries and their measured IC50 follow.
experimentalEndpoint: IC50 (nM)

{"columns": ["molecule", "experimentalEndpoint", "reportedResult"],
 "data": [
  ["[2H]C([2H])([2H])N(C(=O)Oc1c(-c2cn(C3CN(S(C)(=O)=O)C3)nn2)cc(C(F)(F)F)cc1C(F)(F)F)c1ccc(F)c(Cl)c1F [Example 28]", "IC50", 3.2],
  ["CN(C(=O)Oc1c(-c2cn(CCOCCOCCOCCOCC(=O)Nc3cccc4c3C(=O)N(C3CCC(=O)NC3=O)C4=O)nn2)cc(C(F)(F)F)cc1C(F)(F)F)c1ccc(F)cc1 (stereo not drawn) [Example 8]", "IC50", 4.2],
  ["[2H]C([2H])([2H])N(C(=O)Oc1c(-c2cnn(CC(O)CN(C)C)c2)cc(C(F)(F)F)cc1C(F)(F)F)c1ccc(F)cc1 (stereo not drawn) [Example 25]", "IC50", 24]
]}

====

Biological target: recombinant human Polq polymerase domain (residues 1792-2590) (Homo sapiens, UniProt O75417)
Sequence (O75417 1792-2590): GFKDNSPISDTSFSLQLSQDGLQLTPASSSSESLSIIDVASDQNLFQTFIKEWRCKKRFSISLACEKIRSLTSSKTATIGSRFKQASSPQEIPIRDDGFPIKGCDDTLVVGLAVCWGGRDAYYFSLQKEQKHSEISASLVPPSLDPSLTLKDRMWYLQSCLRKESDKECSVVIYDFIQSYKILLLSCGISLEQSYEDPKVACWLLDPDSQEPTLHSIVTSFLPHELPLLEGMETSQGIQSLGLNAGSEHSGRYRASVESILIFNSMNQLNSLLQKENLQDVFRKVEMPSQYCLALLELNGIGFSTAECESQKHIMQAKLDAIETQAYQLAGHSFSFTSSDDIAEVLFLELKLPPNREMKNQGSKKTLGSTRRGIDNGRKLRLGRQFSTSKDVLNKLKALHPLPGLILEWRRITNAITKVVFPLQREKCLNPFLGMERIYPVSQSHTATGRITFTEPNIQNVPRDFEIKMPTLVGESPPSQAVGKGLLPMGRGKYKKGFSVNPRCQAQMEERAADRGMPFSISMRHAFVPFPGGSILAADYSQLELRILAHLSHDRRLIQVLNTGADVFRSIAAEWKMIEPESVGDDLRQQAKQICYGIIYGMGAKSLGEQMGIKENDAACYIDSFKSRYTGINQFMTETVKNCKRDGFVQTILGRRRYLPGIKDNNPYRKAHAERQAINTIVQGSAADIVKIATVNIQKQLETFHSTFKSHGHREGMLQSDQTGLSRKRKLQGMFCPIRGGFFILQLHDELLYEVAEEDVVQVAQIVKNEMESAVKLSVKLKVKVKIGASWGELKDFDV
Assay: Cy5 fluorescence assay of Polq polymerase enzymatic activity
Format: biochemical
Settings: Polq IC50, 5 nM Polq polymerase domain, 60 nM primer-template, 50 uM dNTPs, 37° C., 18 min, 2.5% DMSO, triplicate
Description: The following Cy5 fluorescence assay was used to measure the ability of compounds to inhibit Polq polymerase domain in vitro. […]
Entries and their measured IC50 follow.

{"columns": ["compound", "IC50 (nM)"],
 "data": [
  ["[2H]C([2H])([2H])N(C(=O)Oc1c(-c2cn(CC(O)CN(C)C)nn2)cc(C(F)(F)F)cc1C(F)(F)F)c1ccc(F)cc1 (stereo not shown)", 1.6],
  ["[2H]C([2H])([2H])N(C(=O)Oc1c(-n2cn[nH]c2=O)cc(C(F)(F)F)cc1C(F)(F)F)c1ccc(F)cc1", 51],
  ["[2H]C([2H])([2H])N(C(=O)Oc1c(-c2cn(C3CS(=O)(=O)CC3O)nn2)cc(C(F)(F)F)cc1C(F)(F)F)c1ccc(F)c(Cl)c1F (stereo not shown)", 13.6],
  ["[2H]C([2H])([2H])N(C(=O)Oc1c(-n2cnn(CC(O)CNC)c2=O)cc(C(F)(F)F)cc1C(F)(F)F)c1ccc(F)cc1 (stereo not shown)", 104],
  ["[2H]C([2H])([2H])N(C(=O)Oc1c(-n2cc[nH]c2=O)cc(C(F)(F)F)cc1C(F)(F)F)c1ccc(F)c(Cl)c1F", 2.4],
  ["[2H]C([2H])([2H])N(C(=O)Oc1c(-c2nnco2)cc(C(F)(F)F)cc1C(F)(F)F)c1ccc(F)cc1", 5.6],
  ["[2H]C([2H])([2H])N(C(=O)Oc1c(-c2cn[nH]c2)cc(C(F)(F)F)cc1C(F)(F)F)c1ccc(F)cc1", 2]
]}

====

Entries and their measured pIC50 follow.
Target: recombinant human Polq polymerase domain (residues 1792-2590) (Homo sapiens)
Assay: Cy5 fluorescence assay of Polq polymerase enzymatic activity
Type: biochemical
Conditions: Polq IC50, 5 nM Polq polymerase domain, 60 nM primer-template, 50 uM dNTPs, 37° C., 18 min, 2.5% DMSO, triplicate
pIC50: −log10 of the molar value.

{"columns": ["compound", "studySystem", "pIC50"],
 "data": [
  ["[2H]C([2H])([2H])N(C(=O)Oc1c(-n2cncn2)cc(C(F)(F)F)cc1C(F)(F)F)c1ccc(F)cc1 [Example 32]", "recombinant human Polq polymerase domain (residues 1792-2590) (Homo sapiens)", 7.74],
  ["CN(C(=O)Oc1c(-c2cn(C3CC(O)C3)nn2)cc(C(F)(F)F)cc1C(F)(F)F)c1ccc(F)cc1 (stereo not drawn) [Example 11]", "recombinant human Polq polymerase domain (residues 1792-2590) (Homo sapiens)", 8.70],
  ["[2H]C([2H])([2H])N(C(=O)Oc1c(-c2cn(C3C[C@@H](O)[C@@H](O)C3)nn2)cc(C(F)(F)F)cc1C(F)(F)F)c1ccc(F)cc1 (mixture of isomers) [Example 12]", "recombinant human Polq polymerase domain (residues 1792-2590) (Homo sapiens)", 8.66]
]}
